system: MV4-11 cells; assay: MV4-11 Cytotoxicity Assay; assay type: cell-based, human; conditions: 72 hr, CCK-8; read-out: MV4-11 cytotoxicity
pIC50: −log10 of the molar value. Where a name gives a salt, the structure may show the parent alone.
reported-endpoint: pIC50

Examples with answers:
[
  {
    "compound": "CCn1c(=O)/c(=C2\\Sc3ccccc3N2C)s/c1=C\\c1cccc[n+]1CCNC(=O)C[C@@H]1N=C(c2ccc(Cl)cc2)c2c(sc(C)c2C)-n2c(C)nnc21 [Compound 8]",
    "endpoint-result": "< 6.00"
  },
  {
    "compound": "CC[C@@H](C)Nc1cc(C(=O)NC2C[C@H]3CC[C@H](C2)N3c2ccc(C(=O)c3ccc(CN4CCN(CC5CCN(C(=O)C[C@@H]6N=C(c7ccc(Cl)cc7)c7c(sc(C)c7C)-n7c(C)nnc76)CC5)CC4)cc3)cn2)c(C)cc1C(N)=O (stereo partly shown) [Compound 25]",
    "endpoint-result": "6.00 to 7.00"
  },
  {
    "compound": "CCc1cc(-c2nnc(C(N)=O)n2-c2ccc(CN3CCN(CC4CCN(C(=O)C[C@@H]5N=C(c6ccc(Cl)cc6)c6c(sc(C)c6C)-n6c(C)nnc65)CC4)CC3)cc2)c(O)cc1O [Compound 121, hydrochloride]",
    "endpoint-result": "> 7.00"
  }
]

Now for the compound whose pIC50 we want.
Per the record, CCc1cc(-c2nnc(C(N)=O)n2-c2ccc(CN3CCN(CC4CCN(C(=O)C[C@@H]5N=C(c6ccc(Cl)cc6)c6c(sc(C)c6C)-n6c(C)nnc65)CC4)CC3)cc2)c(O)cc1O [Compound 120, hydrochloride] has pIC50 of > 7.00

* * *

target: BRD4 (Homo sapiens, UniProt O60885); construct: endogenous in cells; host or cells: MV4-11; test: BRD4 Degradation Flow Cytometry Assay in MV4-11 cells; format: cell-based; settings: MV4-11 cells, 24 hr; highest degradation percentage observed at concentrations between 40-1000 nM
reported-endpoint: Percentage BRD4 degradation vs untreated

[
  {
    "compound": "Cc1sc2c(c1C)C(c1ccc(Cl)cc1)=N[C@H](CC(=O)N1CCC(CN3CCN(Cc4ccc(-n5c(O)nnc5-c5cc(C(C)C)c(O)cc5O)cc4)CC3)CC1)c1nnc(C)n1-2 [Compound 5, trifluoroacetic acid]",
    "assay-target": "BRD4 (Homo sapiens, UniProt O60885)",
    "Percentage BRD4 degradation vs untreated": "C (Degradation < 10%)"
  },
  {
    "compound": "Cc1sc2c(c1C)C(c1ccc(Cl)cc1)=N[C@@H](CC(=O)NCCc1ccc(-n3c(O)nnc3-c3cc(C(C)C)c(O)cc3O)cc1)c1nnc(C)n1-2 [Compound 39]",
    "assay-target": "BRD4 (Homo sapiens, UniProt O60885)",
    "Percentage BRD4 degradation vs untreated": "C (Degradation < 10%)"
  },
  {
    "compound": "Cc1sc2c(c1C)C(c1ccc(Cl)cc1)=N[C@@H](CC(=O)N1CCC(CN3CCN(Cc4ccc(-n5c(O)nnc5-c5cc(C(C)C)c(O)cc5O)cc4)CC3)CC1)c1nnc(C)n1-2 [Compound 40, trifluoroacetic acid]",
    "assay-target": "BRD4 (Homo sapiens, UniProt O60885)",
    "Percentage BRD4 degradation vs untreated": "A (Degradation > 50%)"
  },
  {
    "compound": "CCc1cc(-c2nnc(O)n2-c2ccc(CN3CCN(CC4CCN(C(=O)C[C@@H]5N=C(c6ccc(Cl)cc6)c6c(sc(C)c6C)-n6c(C)nnc65)CC4)CC3)cc2)c(O)cc1O [Compound 1]",
    "assay-target": "BRD4 (Homo sapiens, UniProt O60885)",
    "Percentage BRD4 degradation vs untreated": "A (Degradation > 50%)"
  },
  {
    "compound": "Cc1sc2c(c1C)C(c1ccc(Cl)cc1)=N[C@@H](CC(=O)NCC(=O)NCC1CCN(C(=O)C3CCN(Cc4ccc(-n5c(O)nnc5-c5cc(C(C)C)c(O)cc5O)cc4)CC3)CC1)c1nnc(C)n1-2 [Compound 46, trifluoroacetic acid]",
    "assay-target": "BRD4 (Homo sapiens, UniProt O60885)",
    "Percentage BRD4 degradation vs untreated": "A (Degradation > 50%)"
  }
]

Now for the compound whose Percentage BRD4 degradation vs untreated we want.
Per the record, CC(=O)N1CCC(CN2CCN(Cc3ccc(-n4c(O)nnc4-c4cc(C(C)C)c(O)cc4O)cc3)CC2)CC1 [HSP90 binder, reference compound] has Percentage BRD4 degradation vs untreated of C (Degradation < 10%)

// provenance: patent US12540143B2
